biological target: 26S proteasome non-ATPase regulatory subunit 14 (Homo sapiens) (UniProt O00487); assay: inhibition of 26S proteasome subunit Rpn11 – biochemical, fluorescence polarization, uHTS, primary screen (AID 588493); details: human 26S proteasome, Ub4-pepOG fluorescence polarization; at 20 µM; active compounds read high; 20S core pre-blocked with epoxomicin
Sequence (O00487 whole entry, looked up): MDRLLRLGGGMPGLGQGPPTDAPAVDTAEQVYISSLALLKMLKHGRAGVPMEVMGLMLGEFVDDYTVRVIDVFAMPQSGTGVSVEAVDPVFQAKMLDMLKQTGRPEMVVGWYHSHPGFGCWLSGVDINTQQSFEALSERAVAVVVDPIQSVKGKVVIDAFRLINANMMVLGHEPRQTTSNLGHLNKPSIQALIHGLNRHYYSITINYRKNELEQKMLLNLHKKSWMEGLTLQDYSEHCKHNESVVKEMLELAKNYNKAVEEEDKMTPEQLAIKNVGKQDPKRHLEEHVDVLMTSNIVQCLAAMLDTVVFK
The whole screen tested about 360,000 compounds, of which about 2,100 (0.58%) were called active. The sample holds actives, similar compounds and a random draw of the others, so the mix is not that of the screen.
Can you tell me inhibition for the items I'm about to list?

I am curious: what inhibition value has been reported for CCN(CC)C(=O)CSc1nc2ccccc2n1CC(=O)N1CCN(c2ccccc2OC)CC1 ?
34.8% (active)

Then CCCCCCCCc1c(O)nc(-n2[nH]c(C)c(CCO)c2=O)[nH]c1=O ?
11.1% (inactive)

Then CCN(CC)CCn1c2c(c(SCC(=O)Nc3ccc(C(C)C)cc3)nc1=O)CCC2 ?
0.3% (inactive)

Then OC(c1ccc(Cl)cc1)c1ncc(-c2ccc(Cl)cc2)[nH]1 (centres undefined) ?
-5.5% (inactive)
